- Assayed System: HIV-1 integrase (Human immunodeficiency virus type 1 group M subtype B)
- Construct: Purified recombinant HIV-1 integrase was incubated with immobilized precleaved substrate DNA
- Procedure Text: In vitro activity against integrase, Method A (immobilized precleaved substrate DNA, biotinylated target DNA, 96 well plate)
- Assay type: biochemical
- Condition Summary: Assay Method A, read-out: Percent inhibition of HIV Integrase at 70 uM
Outcome Measure: inhibition at 70 µM (%)
Respond numerically; units are % and should not be typed.

Please review the entries below; each comes with its answer.
{"Molecule": "CN(Cc1ccc(OCc2ccccc2)cc1)C(=O)/C=C(\\O)C(=O)O [Compound 36]", "Value Units": "%", "Value": 30}
{"Molecule": "COc1cccc(CN(C)C(=O)/C=C(\\O)C(=O)O)c1 [Compound 33]", "Value Units": "%", "Value": 90}
{"Molecule": "O=C(O)/C(O)=C/C(=O)N(Cc1ccc(F)cc1)Cc1ccccc1Cl [Compound 19]", "Value Units": "%", "Value": 96.5}
{"Molecule": "CN(Cc1cccc(F)c1)C(=O)/C=C(\\O)C(=O)O [Compound 40]", "Value Units": "%", "Value": 90}

**Q:** Read off the recorded inhibition at 70 µM for CN(Cc1cccc(C(F)(F)F)c1)C(=O)/C=C(\O)C(=O)O [Compound 37]
**A:** 82.5

**Q:** Read off the recorded inhibition at 70 µM for CN(C(=O)/C=C(\O)C(=O)O)C(c1ccc(F)cc1)c1cccnc1 (stereo not drawn) [Compound 77]
**A:** 60

**Q:** Read off the recorded inhibition at 70 µM for O=C(O)/C(O)=C/C(=O)N(Cc1ccc(F)cc1)Cc1ccc(F)c(F)c1 [Compound 26]
**A:** 97

====

- Assayed System: HIV-1 integrase (Human immunodeficiency virus type 1 group M subtype B, UniProt P04585)
- Construct: Purified recombinant HIV-1 integrase was incubated with immobilized precleaved substrate DNA
- Procedure Text: In vitro activity against integrase, Method A (immobilized precleaved substrate DNA, biotinylated target DNA, 96 well plate)
- Format: biochemical
- Condition Summary: Assay Method A, read-out: Percent inhibition of HIV Integrase at 70 uM
Examples of compounds with documented inhibition at 70 µM follow.
Respond numerically; units are % and should not be typed.

Please review the entries below; each comes with its answer.
{"Compound": "O=C(O)/C(O)=C/C(=O)N(Cc1ccc(F)cc1)Cc1cccc(Cl)c1", "Value Units": "%", "inhibition at 70 µM": 96.5}
{"Compound": "CN(CCc1ccc(F)cc1)C(=O)/C=C(\\O)C(=O)O", "Value Units": "%", "inhibition at 70 µM": 75}
{"Compound": "O=C(O)/C(O)=C/C(=O)N(CCc1ccccc1)Cc1ccccc1", "Value Units": "%", "inhibition at 70 µM": 94}
{"Compound": "CN(Cc1csc2ccc(Cl)cc12)C(=O)/C=C(\\O)C(=O)O", "Value Units": "%", "inhibition at 70 µM": 97}
{"Compound": "COc1ccc(CN(Cc2ccc(F)cc2)C(=O)/C=C(\\O)C(=O)O)c(OC)c1", "Value Units": "%", "inhibition at 70 µM": 95.5}

**Q:** Read off the recorded inhibition at 70 µM for CC(c1ccccc1)N(Cc1ccc(F)cc1)C(=O)/C=C(\O)C(=O)O (stereo not drawn)
**A:** 55

**Q:** Read off the recorded inhibition at 70 µM for "CN(Cc1ccccc1Br)C(=O)/C=C(\O)C(=O)O"
**A:** 85

**Q:** Read off the recorded inhibition at 70 µM for "CN(Cc1cccc(Cc2ccc(F)cc2)c1)C(=O)/C=C(\O)C(=O)O"
**A:** 88

**Q:** Read off the recorded inhibition at 70 µM for "COc1ccc(CN(C)C(=O)/C=C(\O)C(=O)O)cc1"
**A:** 82

====

- Assayed System: HIV Integrase (Human immunodeficiency virus type 1 group M subtype B, UniProt P04585)
- Construct: 0.26 ng of recombinant integrase was then incubated with the beads
- Procedure Text: In vitro activity against integrase, Method B (SPA assay)
- Assay type: biochemical
- Condition Summary: read-out: Percent inhibition of HIV Integrase at 70 uM
Examples of compounds with documented inhibition at 70 µM follow.
Returns: string containing the numeric result and its unit.

Please review the entries below; each comes with its answer.
{"Given Smiles": "CN(Cc1ccc(F)c(F)c1)C(=O)/C=C(\\O)C(=O)O", "inhibition at 70 µM": "98%"}
{"Given Smiles": "CN(Cc1cccc(Oc2ccccc2)c1)C(=O)/C=C(\\O)C(=O)O", "inhibition at 70 µM": "95%"}
{"Given Smiles": "O=C(/C=C(\\O)C(=O)O)NC(c1ccc(Cl)cc1)c1ccc(Cl)cc1", "inhibition at 70 µM": "94%"}
{"Given Smiles": "O=C(O)/C(O)=C/C(=O)N(Cc1ccc(F)cc1)c1ccc(F)cc1", "inhibition at 70 µM": "99%"}

Could you now look at the following compound, please?
**Q:** Read off the recorded inhibition at 70 µM for "O=C(O)/C(O)=C/C(=O)N(Cc1ccc(F)cc1)Cc1ccc(F)cc1"
**A:** 97%

====

- Assayed System: HIV-1 integrase (Human immunodeficiency virus type 1 group M subtype B, UniProt P04585)
- Construct: Purified recombinant HIV-1 integrase was incubated with immobilized precleaved substrate DNA
- Procedure Text: In vitro activity against integrase, Method A (immobilized precleaved substrate DNA, biotinylated target DNA, 96 well plate)
- Assay type: biochemical
- Condition Summary: Assay Method A, read-out: Percent inhibition of HIV Integrase at 70 uM
- Procedure: The in vitro activities, against integrase, of compounds of the present invention were measured by one of the following three methods. […]
Examples of compounds with documented inhibition at 70 µM follow.
Respond numerically; units are % and should not be typed.

{"Given Smiles": "CN(Cc1cccc(-c2ccccc2)c1)C(=O)/C=C(\\O)C(=O)O", "Outcome Measure": "inhibition at 70 µM", "Value": 85}
{"Given Smiles": "CN(Cc1ccccc1-c1ccccc1)C(=O)/C=C(\\O)C(=O)O", "Outcome Measure": "inhibition at 70 µM", "Value": 85}
{"Given Smiles": "CN(Cc1ccc(OCc2ccc(F)cc2)cc1)C(=O)/C=C(\\O)C(=O)O", "Outcome Measure": "inhibition at 70 µM", "Value": 40}
{"Given Smiles": "O=C(O)CNC(=O)/C(O)=C/C(=O)N(Cc1ccc(F)cc1)Cc1ccc(F)cc1", "Outcome Measure": "inhibition at 70 µM", "Value": 95}
{"Given Smiles": "CN(Cc1ccccc1Cl)C(=O)/C=C(\\O)C(=O)O", "Outcome Measure": "inhibition at 70 µM", "Value": 79}

**Q:** Read off the recorded inhibition at 70 µM for "CN(Cc1ccc(F)c2ccccc12)C(=O)/C=C(\O)C(=O)O"
**A:** 95

**Q:** Read off the recorded inhibition at 70 µM for "CN(Cc1ccccc1)C(=O)/C=C(\O)C(=O)O"
**A:** 89.5

**Q:** Read off the recorded inhibition at 70 µM for "O=C(O)/C(O)=C/C(=O)N(CCc1ccc(F)cc1)Cc1ccccc1Cl"
**A:** 89.5

**Q:** Read off the recorded inhibition at 70 µM for "CCN(Cc1ccc(F)cc1)C(=O)/C=C(\O)C(=O)O"
**A:** 93

**Q:** Read off the recorded inhibition at 70 µM for "COCCN(Cc1ccc(F)cc1)C(=O)/C=C(\O)C(=O)O"
**A:** 91

**Q:** Read off the recorded inhibition at 70 µM for "CN(C(=O)/C=C(\O)C(=O)O)C(c1ccc(Cl)cc1)c1ccc(Cl)cc1"
**A:** 90

**Q:** Read off the recorded inhibition at 70 µM for "CC(C)(C)N(Cc1ccc(F)cc1)C(=O)/C=C(\O)C(=O)O"
**A:** 33.5

**Q:** Read off the recorded inhibition at 70 µM for "O=C(O)/C(O)=C/C(=O)N(CCc1ccc(F)cc1)Cc1csc2ccc(Cl)cc12"
**A:** 97.5

**Q:** Read off the recorded inhibition at 70 µM for "CN(Cc1ccccc1F)C(=O)/C=C(\O)C(=O)O"
**A:** 70

**Q:** Read off the recorded inhibition at 70 µM for "O=C(O)/C(O)=C/C(=O)N(CCCc1ccccc1)Cc1ccc(F)cc1"
**A:** 93.5

**Q:** Read off the recorded inhibition at 70 µM for "CN(Cc1ccccc1OCc1ccc(F)cc1)C(=O)/C=C(\O)C(=O)O"
**A:** 80

**Q:** Read off the recorded inhibition at 70 µM for "Cc1ccc(CN(C)C(=O)/C=C(\O)C(=O)O)cc1"
**A:** 84

====

- Assayed System: HIV-1 integrase (Human immunodeficiency virus type 1 group M subtype B)
- Construct: Purified recombinant HIV-1 integrase was incubated with immobilized precleaved substrate DNA
- Procedure Text: In vitro activity against integrase, Method A (immobilized precleaved substrate DNA, biotinylated target DNA, 96 well plate)
- Type: biochemical
- Condition Summary: Assay Method A, read-out: Percent inhibition of HIV Integrase at 70 uM
- Experimental: The in vitro activities, against integrase, of compounds of the present invention were measured by one of the following three methods. […]
Label Fulfilled when inhibition at 70 µM is at or above 90%; anything below gets Not fulfilled.

{"Compound": "COc1ccc(C(c2ccc(OC)cc2)N(C)C(=O)/C=C(\\O)C(=O)O)cc1 [Compound 6]", "Label Class": "Not fulfilled"}
{"Compound": "O=C(O)/C(O)=C/C(=O)N(Cc1ccc(F)cc1)Cc1ccc(F)cc1F [Compound 25]", "Label Class": "Fulfilled"}
{"Compound": "CN(Cc1cccc(OCc2ccc(F)cc2)c1)C(=O)/C=C(\\O)C(=O)O [Compound 3]", "Label Class": "Fulfilled"}
{"Compound": "CN(C(=O)/C=C(\\O)C(=O)O)C(c1ccc(F)cc1)c1ccc(F)cc1 [Compound 5]", "Label Class": "Not fulfilled"}
{"Compound": "O=C(O)/C(O)=C/C(=O)N(Cc1ccc(F)cc1)Cc1csc2ccc(Cl)cc12 [Compound 21]", "Label Class": "Fulfilled"}
{"Compound": "CC(C)N(Cc1ccc(F)cc1)C(=O)/C=C(\\O)C(=O)O [Compound 29]", "Label Class": "Not fulfilled"}

Then there is this compound:
**Q:** Is inhibition at 70 µM at least 90%? Consider CN(C(=O)/C=C(\O)C(=O)O)C(c1ccccc1)c1ccccc1 [Compound 7]
**A:** Not fulfilled
